- System: CAKI-1
- assay_remarks: NCI tumour cell line growth inhibition, 48 h
Activity calls are given as the source filed them. No stated cut-off is given here; in the data, active = GI50 up to about 1.1 µM and inactive = higher.
Labels: active, inactive

- compound: "NNS(=O)(=O)c1cc(C(=O)O)cc(C(=O)O)c1"
  system_under_test: "CAKI-1"
  class_name: "inactive"
- compound: "C/C(=N\\NC(N)=S)c1cc(C)c(C)cc1C"
  system_under_test: "CAKI-1"
  class_name: "inactive"
- compound: "Cc1cc(N(CCC#N)CCC#N)ccc1/C=C(\\NC(=O)/C=C/c1ccccc1)C(=O)NN"
  system_under_test: "CAKI-1"
  class_name: "inactive"
- compound: "C/C(=N\\Nc1nc2ccccc2o1)c1cc2ccccc2cn1"
  system_under_test: "CAKI-1"
  class_name: "active"
- compound: "CCCC/C=C1/CCC(CN(C)C)C1=O (stereo unspecified)"
  system_under_test: "CAKI-1"
  class_name: "active"
- compound: "O=Nc1c(-c2cccc([N+](=O)[O-])c2)nc2cnccn12"
  system_under_test: "CAKI-1"
  class_name: "inactive"
- compound: "CN1C(=O)C(C)(C)C2(SC(C)(C)C2(C)C)N(C)C1=S (stereo unspecified)"
  system_under_test: "CAKI-1"
  class_name: "inactive"
- compound: "CC(C)C(/C=C/c1ccc(Cl)c(Cl)c1)=N\\NC(=O)N/N=C(/C=C/c1ccc(Cl)c(Cl)c1)C(C)C"
  system_under_test: "CAKI-1"
  class_name: "inactive"
- compound: "O=C1C(c2ccccc2)=C(O)c2cccc3cccc1c23"
  system_under_test: "CAKI-1"
  class_name: "inactive"
- compound: "CC1CCCP(=O)(c2ccccc2)CCC1 (stereo unspecified)"
  system_under_test: "CAKI-1"
  class_name: "inactive"
- compound: "COC(=O)C(=O)C(C(=O)C(=O)Nc1cc(C)ccc1C)c1nc2ccc(C(=O)c3ccccc3)cc2nc1O (stereo unspecified)"
  system_under_test: "CAKI-1"
  class_name: "inactive"

====

# GI50 values compiled below
- Test system: TK-10
- assay_remarks: NCI tumour cell line growth inhibition, 48 h
The source made the active and inactive calls. Cut-off read from the data, not from the text of the source: active = GI50 up to about 1.1 µM and inactive = higher.
experimental_endpoint: GI50

- molecule: "CCCCCCCCCCCC(=O)NCc1ccc(OC(=O)CCCCCCCCCCC)c(OC)c1"
  experimental_endpoint: "GI50"
  measured_value: "> 100 µM (inactive)"
- molecule: "O=c1c(F)cn(Cc2c(Cl)cccc2Cl)c(=O)n1Cc1c(Cl)cccc1Cl"
  experimental_endpoint: "GI50"
  measured_value: "> 31.6 µM (inactive)"
- molecule: "N#CC(C(=O)/C(=N/NC(=O)c1ccccc1O)C(C#N)c1ccccc1)c1ccccc1 (stereo not drawn)"
  experimental_endpoint: "GI50"
  measured_value: "> 100 µM (inactive)"
- molecule: "OCC1(CNc2cc(Cl)ncn2)CCC1"
  experimental_endpoint: "GI50"
  measured_value: "> 100 µM (inactive)"
- molecule: "N#CC(C(=O)/C(=N/NC(=O)c1ccccc1O)C(C#N)c1ccc(Br)cc1)c1ccc(Br)cc1 (stereo not drawn)"
  experimental_endpoint: "GI50"
  measured_value: "24.4 µM (inactive)"
- molecule: "CCOC(=O)c1ccc(-c2cc(C)[nH]n2)[nH]1"
  experimental_endpoint: "GI50"
  measured_value: "> 100 µM (inactive)"
- molecule: "COC(=N)C(C)C"
  experimental_endpoint: "GI50"
  measured_value: "> 100 µM (inactive)"
- molecule: "C[N+](C)(C)CC(=O)N/N=C(\\C(=O)Nc1ccc(Cl)cc1)C1C(=O)N(c2ccccc2)N=C1N (stereo not drawn)"
  experimental_endpoint: "GI50"
  measured_value: "> 100 µM (inactive)"
- molecule: "O=C1C(c2ccccc2)=C(O)c2cccc3cccc1c23"
  experimental_endpoint: "GI50"
  measured_value: "> 100 µM (inactive)"
- molecule: "CC(=O)O[C@@]1(C)[C@@H](C)C(=O)O[C@@H]2CCN3CC=C(COC(=O)[C@]1(C)O)[C@H]23"
  experimental_endpoint: "GI50"
  measured_value: "> 100 µM (inactive)"
- molecule: "N#CC(NNC(=O)c1c(Cl)c(Cl)c(Cl)c(Cl)c1-c1nc2cc(C(=O)c3ccccc3)ccc2[nH]1)c1cccc(Oc2ccccc2)c1 (stereo not drawn)"
  experimental_endpoint: "GI50"
  measured_value: "31.3 µM (inactive)"
- molecule: "NNS(=O)(=O)c1cc(C(=O)O)cc(C(=O)O)c1"
  experimental_endpoint: "GI50"
  measured_value: "> 100 µM (inactive)"
- molecule: "CCCCNc1nc2ccccc2c2c1ncn2CC(C)C"
  experimental_endpoint: "GI50"
  measured_value: "> 100 µM (inactive)"
- molecule: "[N-]=[N+]=C1C(=O)C2CC3CC1CC2C3 (stereo not drawn)"
  experimental_endpoint: "GI50"
  measured_value: "> 100 µM (inactive)"
- molecule: "O=C1OC(c2ccccc2)=N/C1=C/NC(CS)C(=O)O (stereo not drawn)"
  experimental_endpoint: "GI50"
  measured_value: "> 100 µM (inactive)"
- molecule: "COc1ccc(-n2cnc3c(NC(Cc4ccccc4)C(=O)O)ncnc32)cc1 (stereo not drawn)"
  experimental_endpoint: "GI50"
  measured_value: "> 100 µM (inactive)"
- molecule: "O=C(O)C(Cc1ccccc1-c1ccccc1)C(=O)O"
  experimental_endpoint: "GI50"
  measured_value: "> 100 µM (inactive)"
- molecule: "COc1cc(/C=C2\\N=C(c3ccccc3)N(/N=C3\\C(=O)Nc4ccccc43)C2=O)cc(OC)c1OC"
  experimental_endpoint: "GI50"
  measured_value: "> 100 µM (inactive)"
